tgt: human glucagon receptor (human) (UniProt P47871)
Sequence (P47871 26-477): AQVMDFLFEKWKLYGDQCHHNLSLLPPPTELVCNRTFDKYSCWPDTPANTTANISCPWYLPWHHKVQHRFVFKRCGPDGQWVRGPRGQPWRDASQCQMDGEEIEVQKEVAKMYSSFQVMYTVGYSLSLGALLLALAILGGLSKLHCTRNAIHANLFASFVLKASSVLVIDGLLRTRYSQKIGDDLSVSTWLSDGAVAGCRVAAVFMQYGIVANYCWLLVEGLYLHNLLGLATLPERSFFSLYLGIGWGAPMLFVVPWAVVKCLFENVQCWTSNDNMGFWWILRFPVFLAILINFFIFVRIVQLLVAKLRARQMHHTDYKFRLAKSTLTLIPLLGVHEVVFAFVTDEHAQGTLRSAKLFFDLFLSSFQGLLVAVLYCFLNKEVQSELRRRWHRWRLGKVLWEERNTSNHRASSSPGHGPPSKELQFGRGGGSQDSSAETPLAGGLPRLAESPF
experiment-summary: cell-based or functional assay
reported-metric: cAMP EC50, Batch 1

IP203 (Fc fusion) HGEGTFTSDVSSYLEGQAAKEFIAWLVKGGAAAGGSGSTASSGSGSATGGGGAATHTCPPCPAPEF; > 650 nM
IP188 (Fc fusion) YSEGTFISDYSIAMDKIHQQDFVNWLLAQKAPPGGGGGSGGGGSGGGGSGGGGSATHTCPPCPAPEF; 350 nM
IP193 (Fc fusion) HGEGTFTSDVSSYLEGQAAKEFIAWLVKGAAAGGSGSTASSGSGSATGGGGCPPCPAPEF; 780 nM
IP146 (Fc fusion) HGEGTFTSDVSSYLEGQAAKEFIAWLVKGAAAGGSGSTASSGSGSATGGGGAACPPCPAPEF; 650 nM

Cited source: patent US20160185837A1
